# system: T1, human CD200R1 with dual His-tags (human, UniProt Q8TD46 25-265)
# T1 construct: Captured on the SPR chip by an anti-histidine antibody; also called hCD200R1-his; not shown: dual His-tags
# T1 sequence (looked up): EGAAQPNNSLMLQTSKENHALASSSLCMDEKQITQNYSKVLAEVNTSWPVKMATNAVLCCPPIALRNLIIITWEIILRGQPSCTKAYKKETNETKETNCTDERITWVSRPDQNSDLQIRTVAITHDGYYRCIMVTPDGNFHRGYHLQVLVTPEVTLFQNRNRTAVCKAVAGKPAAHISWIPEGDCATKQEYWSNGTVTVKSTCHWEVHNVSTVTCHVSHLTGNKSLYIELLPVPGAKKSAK
# run.description: SPR (Biacore CM5), His-tagged antigen captured by anti-histidine antibody, antibody as analyte, 1:1 Langmuir fit
endpoint.label: Kd (nM)
Respond numerically; units are nM and should not be typed.

Query :: Given P001009v2 (antibody, V domains shown, P001009 with LC S52K and D93R (Kabat); also called P019001v2) VH: EVQLLESGGGLVQPGGSLRLSCAASGFTFSSYDMSWVRQAPGKGLEWVSWISHGGGSIYYADSVKGRFTISRDNSKNTLYLQMNSLRAEDTAVYYCARDAPAYSAPLFDYWGQGTLVTVSS VL: QSVLTQPPSASGTPGQRVTISCSGSSSNIGNNAVNWYQQLPGTAPKLLIYYDKNRPSGVPDRFSGSKSGTSASLAISGLRSEDEADYYCAAWDRSLSGYVFGGGTKLTVL , state its recorded Kd.
Result :: 0.87
